Every entry's value here was drawn from PubChem BioAssay (NCI).

- Tested on: NCI/ADR-RES ovarian
- procedureSummary: NCI-60 one-dose screen, 48 h
- conditionContext: 10 µM unless noted
- Description: Growth inhibition of the NCI/ADR-RES human […] tumor cell line is measured as a screen for anti-cancer activity. Cells are grown in 96 well plates and exposed to the test compound for 48 hours. Compounds are tested at a single concentration, which is 10^-5 M for most compounds. The reported endpoint is percent growth (GI% or GIPRCNT), where numbers from 0 - 100% represent growth inhibition, and numbers from -100% - 0 represent cell death. For example, a value of 40 represents 60% growth inhibition. […]
This is part of a sample that, as a whole, favours compounds with a hit. Of some 83,000 tested, about 20% had one in any assay. Activity calls are given as the source filed them. The calls were made as follows: active = growth percent below 10; inactive = the rest.
Please state which outcome applies, choosing from 1 for active, -1 for inactive

Tell me the assay call for COc1ccc2c(c1)sc1nc(-c3ccc(N(C)C)cc3)cn12 please.
-1

Outcome logged for Cc1[nH]ccc2cc3nc4ccccc4c3cc12 in this assay:
-1

Please let me know the test result on file for CCn1cnc(C[C@H](NC(=O)[C@H](CCCCNC(=O)Nc2cc(C(F)(F)F)cc(C(F)(F)F)c2)NC(=O)Nc2cc(C(F)(F)F)cc(C(F)(F)F)c2)C(=O)OC)c1 .
-1

So what was the verdict on COc1cc(/C=C2\CN(C)CC3=C2Nc2nc(SC)[nH]c(=O)c2C3c2cc(OC)c(OC)c(OC)c2)cc(OC)c1OC (stereo not drawn) in this test?
1

Short answer needed: outcome of this test for N#Cc1c(-c2ccccc2)cc(-c2ccccc2)n(CCCCCCC(=O)O)c1=O ?
-1

Identify the outcome logged in this assay for the molecule shown: FC(F)(F)c1ccc(-c2cnc(-c3nn[nH]n3)nc2NC2CCCCCC2)cc1
-1

Dear all, I need the recorded test outcome for COC(=O)c1c(NC(=O)CSc2nnnn2-c2ccc(OC)cc2)sc(C)c1C , thank you.
-1

GET /call?item= CC(=O)N1N=C(c2ccc(Nc3ccnc4cc(Cl)ccc34)cc2)CC1c1ccc(Cl)cc1 (stereo not drawn) returns the recorded outcome of this test.
-1
